Tested on: MCF7 breast
assay_info: NCI tumour cell line growth inhibition, 48 h
metric: TGI

Guide cases for TGI, answers given:
Cc1ccc(C(=O)Nc2ccc(S(=O)(=O)O)c3cc(S(=O)(=O)O)cc(S(=O)(=O)O)c23)cc1NC(=S)Nc1cc(C(=O)Nc2ccc(S(=O)(=O)O)c3cc(S(=O)(=O)O)cc(S(=O)(=O)O)c23)ccc1C ... > 75 µM
C/C=C\C(CC(=O)NCCC1CN(S(=O)(=O)C(F)(F)F)c2ccccc21)CC(=O)OC (centres undefined) ... > 100 µM

Quick check: TGI of CCn1cc(-c2ccnc3[nH]ccc23)c(-c2cccc(NC(=O)Nc3ccc(OCc4ccccc4)cc3)c2)n1 ? > 25 µM

So what's the measured TGI for this one? COc1cc(C(=O)O[C@@H]2[C@@H](OC(=O)c3cc(OC)c(OC)c(OC)c3)[C@@H](OC)O[C@@H]3CO[C@@H](c4ccccc4)O[C@@H]23)cc(OC)c1OC > 100 µM

---

Test system: SN12C renal
assay_info: NCI tumour cell line growth inhibition, 48 h
metric: TGI

Worked set:
COc1ccc(NC(=O)CC/C(CC(=O)C(C)(C)C)=N\NC(=O)C(N)=O)cc1 ... > 100 µM
COc1ccc(C(=O)C(c2ccc(OC)cc2)C2OC(=O)C(Cl)=C2Cl)cc1 (stereo not drawn) ... > 100 µM

Now take the following molecule into account.
Param item = O=C(O)CNc1ccc(C(=O)O)cc1 ; retrieve measured TGI. > 100 µM

---

Test system: NCI-H522 lung
assay_info: NCI tumour cell line growth inhibition, 48 h; in the data active = GI50 below about 0.43 µM; inactive = the rest
Select the correct class. Options are yes (active), no (inactive) and nothing else.

// known answers, use as guide
CCN(CC)CCCC(C)Nc1nc(C)cc(Nc2ccc3nc(C)cc(N)c3c2)n1 (centres undefined) ... no
COC1C(O)C(C)OC(OC2C(Oc3cccc4c(O)c5c(=O)oc6ccc(C)c7c(=O)oc(c34)c5c67)OC(C)C(O)C2O)C1O (centres undefined) ... no
COC(=O)c1c(O)c([N+](=O)[O-])cc2c1c1c(n2Cc2ccccc2)C(=O)c2ccccc2C1=O ... no
COc1ccc(/C=C2\CC(C)CC3C2=NN(C(C)=O)C3c2ccc(OC)cc2)cc1 (centres undefined) ... no
CC(=O)N1c2ccccc2NC2=C(C(=O)N(Cc3ccccc3)C2(C)C)C1c1ccco1 (centres undefined) ... no
Cc1cc2cn3c4ccc(O)cc4[nH]c(=O)c3c2cc1C ... yes

What was the test verdict on Cc1nc([C@H]2CC[C@H]3[C@@H]4CCC5=CC(=O)CC[C@]5(C)[C@H]4CC[C@]23C)cs1 ? no

# fetch the recorded call for OC(COc1ccc(F)cc1)Cn1cnc2c(Cl)ncnc21 (centres undefined) here no

Name the outcome recorded for CCn1cc(-c2ccnc3[nH]ccc23)c(-c2cccc(NC(=O)Nc3ccc(OCc4ccccc4)cc3)c2)n1 in the assay. no

---

System: SF-268 CNS
assay_info: NCI tumour cell line growth inhibition, 48 h
metric: TGI

Consider the worked cases shown below.
Cc1ccc2c(c1)C(=O)N1CCC[C@H]1C=N2 ... > 100 µM
Cc1ccc(N=N/C(=N/NC(=O)c2cc(Cl)ccc2C(=O)c2ccccc2)c2ccc(N(CCC#N)CCC#N)cc2C)cc1 ... > 100 µM
CN1CCN(c2ccc(Nc3nc(N)c(C(=O)c4ccc5c(c4)OCCO5)s3)cc2)CC1 ... 10.5 µM
Cc1cc(S(=O)(=O)/N=C(\[N-]S(=O)(=O)c2ccc(Cl)cc2)[n+]2ccc(N(C)C)cc2)c(S)cc1Cl ... > 100 µM
CC1(C)CC(=O)C2=C(C1)NC1=C(C(=O)CC(C)(C)C1)C2c1ccc([N+](=O)[O-])cc1 ... > 100 µM
CCOC(=O)C(=O)Nc1ccc(Cl)cc1C ... > 100 µM
CCCCOC(=O)NC(Nc1cccc(C(F)(F)F)c1)(C(F)(F)F)C(F)(F)F ... > 100 µM
O=C(NNC(c1ccccc1)C(F)(F)F)c1ccncc1 (configuration not stated) ... > 100 µM
CCN(CC)CCCn1c(=O)c2ccccc2n2c3c(=O)n(C)c(=O)n(C)c3nc12 ... 23 µM
Cc1ccc2c(sc(-c3ccc4c(c3)sc(-c3ccc5c(c3)sc(-c3ccc(N(C)C)cc3)[n+]5C)[n+]4C)[n+]2C)c1S(=O)(=O)O (tested in a mixture with another compound) ... > 100 µM

What TGI appears in the records for this compound with SF-268 CNS? O=C(Cc1csc(-c2nc(CC(=O)NNc3ccccc3)cs2)n1)NNc1ccccc1 > 100 µM

Recorded TGI for CC(=O)[O-].[Mn+3].[O-]c1ccccc1C=NCCN=Cc1ccccc1[O-] with SF-268 CNS, please? > 100 µM

---

Tested on: MOLT-4 leukemia
assay_info: NCI tumour cell line growth inhibition, 48 h
metric: TGI

Here's what some known entries look like.
CC(=O)Oc1ccc2c(c1)oc1c3ccc(OC(C)=O)cc3n(C)c(=O)c21 ... > 100 µM
CC1(C)CC23CC(C)(C)c4cccc(c42)OCc2ccc4ccc5ccc(nc5c4n2)COc2cccc1c23 ... > 50 µM
COc1ccc(Cc2cc3c(cc2OCC(=O)O)OCO3)cc1 ... > 100 µM
O=C1O[C@H]2[C@H](O)[C@@H](OC(=O)c3cc(O)c(O)c4c3[C@@H]3C1=CC(=O)C(O)(O)C3(O)O4)[C@H](OC(=O)c1cc(O)c(O)c(O)c1)O[C@@H]2CO (some centres undefined) ... > 100 µM

For the molecule N#CC(C#N)=C(N)/C(C#N)=C/c1ccc2ccccc2n1 , what TGI is on record? 97.9 µM

Please give the measured TGI for this molecule: COc1cc(Nc2ncc(F)c(Nc3ccc4c(n3)NC(=O)C(C)(C)O4)n2)cc(OC)c1OC > 100 µM

TGI for CCN(CC)CCCNc1ncc(C)c2[nH]c3ccncc3c12 ? 18.4 µM

Name the reported TGI value associated with the molecule C/C=C1/CN2CCC3(O)c4ccccc4N4C=C(C(=O)OC)C1CC2C43O (centres undefined) > 100 µM

Entry CC(C)(C)c1cc2c(O)c(c1)Cc1cc(C(C#N)(Cc3ccc4ccccc4c3)Cc3ccc4ccccc4c3)cc(c1O)Cc1cc(C(C)(C)C)cc(c1O)Cc1cc(C(C#N)(Cc3ccc4ccccc4c3)Cc3ccc4ccccc4c3)cc(c1O)C2 : reported TGI = ? > 100 µM

May I ask what TGI has been recorded for COC(=O)Nc1nc2ccc(C(=O)c3ccc(N(C)C4COC4)cc3)cc2[nH]1 ? > 100 µM

---

System: NCI-H23 lung
assay_info: NCI tumour cell line growth inhibition, 48 h
metric: TGI

Here's what some known entries look like.
CC1=C(C(=O)Nc2cc(=O)n(C)c(=O)n2C)C(c2ccc([N+](=O)[O-])cc2)C(C(=O)Nc2cc(=O)n(C)c(=O)n2C)=C(C)N1 ... > 100 µM
CN(C)/N=C(/c1nc2ccc([N+](=O)[O-])cc2[nH]c1=O)C(O)c1ccco1 (stereo not drawn) ... > 100 µM
O=C1O[C@H]2[C@H](O)[C@@H](OC(=O)c3cc(O)c(O)c4c3[C@@H]3C1=CC(=O)C(O)(O)C3(O)O4)[C@H](OC(=O)c1cc(O)c(O)c(O)c1)O[C@@H]2CO (stereo partly drawn) ... > 100 µM
c1ccc(P(CCP(c2ccccn2)c2ccccn2)c2ccccc2)cc1 ... > 100 µM
Cc1[nH]c2ccccc2c1-c1cc(-c2cc(-c3c(C)[nH]c4ccccc34)nc(N)n2)nc(N)n1 ... > 100 µM

Quick one: TGI for O=C1CC(=O)NC(=NN2C(=O)/C(=C/c3ccccc3)N=C2c2ccccc2)N1 ? > 100 µM

Form field: reported TGI of O=C(O)CCC/C=C\C[C@H]1C=CC(=O)/C1=C/C[C@@H](O)CCc1cccc(C(F)(F)F)c1 6.37 µM

So what's the measured TGI for this one? CCCC(=O)O[C@H]1C=C2C[C@@]34SS[C@]5(CC6=C[C@H](OC(C)=O)[C@@H]7O[C@@H]7[C@H]6N5C3=O)C(=O)N4[C@@H]2[C@H]2O[C@H]21 0.291 µM

Form field: reported TGI of COC1=CC23CCCN2CCc2cc4c(cc2C3C1O)OCO4 (stereo not drawn) > 100 µM

Recorded TGI for CN(C)Cc1cc(C(C)(C)C)ccc1-c1ccc(C(C)(C)C)cc1CN(C)C , please? > 100 µM

Requested read-out: TGI. Entry: O=C(Cc1csc(N=Nc2c(O)[nH]c3ccccc23)n1)Nc1ccccc1 > 100 µM

For the compound CC(=O)O[C@H]1CCC2[C@@H]3CCC4=C(O)C(=O)C(C#N)C[C@]4(C)C3CC[C@@]21C (stereo partly drawn) , what TGI is on record? > 100 µM

Given the compound C[C@@H]1Cc2c([nH]c3ccccc23)[C@@H](c2c(F)cc(NC3CN(CCCF)C3)cc2F)N1CC(F)(F)CO , what is its reported TGI? 25.6 µM

Provenance of the data: PubChem BioAssay (NCI)
